Reference source for all entries: patent US9434763B2

Target: His tagged recombinant human tissue transglutaminase (His6-rh-TG2) (Homo sapiens)
Construct: purchased Zedira T002
Experiment: Inactivation of human tissue transglutaminase, fluorescence assay with Abz-APE(CAD-DNP)QEA-OH
Format: biochemical
Settings: substrate Abz-APE(CAD-DNP)QEA-OH, 37° C., pH=7.5
pIC50: −log10 of the molar value.
Quantity Measured: pIC50

The cases that follow already have their pIC50 on record.
Compound	Value Reported
CCOC(=O)/C=C/CC[C@H](NC(=O)c1ccsc1)C(=O)Nc1cccn(CC(=O)NCCC(C)C)c1=O	7.08
CCOC(=O)/C=C/CC[C@H](NC(=O)CCC(=O)O)C(=O)Nc1cccn(CC(=O)NCCC(C)C)c1=O	6.76

1. CCOC(=O)/C=C/CC[C@H](NC(=O)OCc1ccccc1)C(=O)Nc1cccn(CC(=O)NCCC(C)C)c1=O
2. CCC(CC)CNC(=O)Cn1cccc(NC(=O)[C@H](CC/C=C/C(=O)OC)NC(=O)c2cccnc2)c1=O
Enquiry: Lower value of pIC50 belongs to which: 1 or 2 ? Answer by stating the label of the chosen item.
Return: 1
(1: 7.02, 2: 7.26)

1. COC(=O)/C=C/CC[C@H](NC(C)=O)C(=O)Nc1cccn(CC(=O)N2CCCC(C)C2)c1=O (stereo partly drawn)
2. CCC(CC)CNC(=O)Cn1cccc(NC(=O)[C@H](CC/C=C/C(=O)OC)NC(=O)c2cncn2C)c1=O
Enquiry: Could you please tell me which of these two has the higher pIC50: 1 or 2 ? Answer format: the label of the selected item.
Return: 2
(2: 7.35, 1: 6.85)

###

Target sequence: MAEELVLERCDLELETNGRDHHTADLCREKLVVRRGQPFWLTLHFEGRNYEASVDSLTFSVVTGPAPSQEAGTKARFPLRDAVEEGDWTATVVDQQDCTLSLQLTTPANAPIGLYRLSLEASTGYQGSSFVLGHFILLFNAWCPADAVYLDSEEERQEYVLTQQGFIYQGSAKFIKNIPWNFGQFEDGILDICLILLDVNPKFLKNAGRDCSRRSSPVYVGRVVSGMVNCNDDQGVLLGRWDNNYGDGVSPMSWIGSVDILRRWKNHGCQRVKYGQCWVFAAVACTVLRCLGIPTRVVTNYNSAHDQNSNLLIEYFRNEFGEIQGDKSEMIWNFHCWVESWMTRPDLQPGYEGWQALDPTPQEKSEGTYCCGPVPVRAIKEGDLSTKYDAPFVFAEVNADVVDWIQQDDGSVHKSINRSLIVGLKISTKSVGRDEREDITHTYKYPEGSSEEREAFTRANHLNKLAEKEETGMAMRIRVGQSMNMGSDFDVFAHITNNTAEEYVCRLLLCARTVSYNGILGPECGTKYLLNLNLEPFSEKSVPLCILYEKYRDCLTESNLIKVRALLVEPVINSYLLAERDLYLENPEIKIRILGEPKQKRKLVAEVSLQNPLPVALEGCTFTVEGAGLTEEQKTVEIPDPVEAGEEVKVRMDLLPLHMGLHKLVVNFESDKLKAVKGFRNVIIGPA
pIC50: −log10 of the molar value.
Quantity Measured: pIC50

Study these solved cases before continuing.
Input Smiles	pIC50
CCOC(=O)/C=C/CC[C@H](NC(=O)c1cncn1C)C(=O)Nc1cccn(CC(=O)N[C@H](C(=O)O)[C@H](C)CC)c1=O	6.08
CC[C@@H](C)[C@H](NC(=O)Cn1cccc(NC(=O)[C@H](CC/C=C/C(=O)OC)NC(=O)c2ccccc2)c1=O)C(=O)O	7.10

A. CCOC(=O)/C=C/CC[C@H](NC(=O)c1cncn1C)C(=O)Nc1cccn(CC(=O)NCCC(C)C)c1=O
B. CC[C@@H](C)[C@H](NC(=O)Cn1cccc(NC(=O)[C@H](CC/C=C/C(=O)OC)NC(=O)c2cncn2C)c1=O)C(=O)O
Enquiry: Dear colleague, could you let me know whether A or B has the lower recorded pIC50? Thanks. Reply with the label of the item you choose.
Return: A

I. COC(=O)/C=C/CC[C@H](NC(C)=O)C(=O)Nc1cccn(CC(=O)N2CCC(C(F)(F)F)CC2)c1=O
II. CCOC(=O)/C=C/CC[C@H](NC(=O)CCC(=O)O)C(=O)Nc1cccn(CC(=O)NCCC(C)C)c1=O
Enquiry: Of I and II , whose reported pIC50 is numerically smaller? # reply format: chosen label
Return: II
(II: 5.12, I: 5.54)
